- Tested on: KARPAS-45;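 also: inhibition of cell line growth, read out through a viability assay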
- test: cells
- Type: functional, cell-based, Homo sapiens
- measurement-setup: Homo sapiens, KARPAS-45
- Description: SANGER: Inhibition of human KARPAS-45 cell growth in a cell viability assay.
readout-name: IC50 (nM)
Your answer is read as nM, so omit the unit and give the number.

entry-smiles | assay-value
COc1cc(N2CCC(N3CCN(C)CC3)CC2)ccc1Nc1ncc(Cl)c(Nc2ccccc2S(=O)(=O)C(C)C)n1 | 843
C/C(=C\c1csc(C)n1)[C@@H]1C[C@@H]2O[C@]2(C)CCC[C@H](C)[C@H](O)[C@@H](C)C(=O)C(C)(C)[C@@H](O)CC(=O)O1 | 5.82
NC(=O)c1ccc(N(C(N)=O)c2c(F)cccc2F)nc1-c1ccc(F)cc1F | 148

Looking up CCCCCCCCCCCC1=C(O)C(=O)C=C(O)C1=O , I see its IC50 listed as 15600

====

- System: A3-KAW;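 also: growth inhibition of human A3-KAW cells, read out with a cell viability assay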
- test: cells
- Assay type: functional, cell-based, Homo sapiens
- measurement-setup: Homo sapiens, A3-KAW
- Description: SANGER: Inhibition of human A3-KAW cell growth in a cell viability assay.
readout-name: IC50

The cases that follow already have their IC50 on record.
entry-smiles | IC50
NC(=O)c1ccc(N(C(N)=O)c2c(F)cccc2F)nc1-c1ccc(F)cc1F | > 2000 nM
NC(=O)c1cccc(-c2cc(Nc3ccc(OC(F)(F)F)cc3)ncn2)c1 | > 1280 nM
CC1(C)CCC(c2ccc(Cl)cc2)=C(CN2CCN(c3ccc(C(=O)NS(=O)(=O)c4ccc(N[C@H](CCN5CCOCC5)CSc5ccccc5)c(S(=O)(=O)C(F)(F)F)c4)cc3)CC2)C1 | > 2000 nM

Proceed to the following item.
The molecule Cc1cc(N2CCOCC2)cc2[nH]c(-c3c(NC[C@@H](O)c4cccc(Cl)c4)cc[nH]c3=O)nc12 , tested on A3-KAW, showed IC50 of 1930 nM

====

- Tested on: NCI-H1648;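 also: cell viability assay measuring inhibition of NCI-H1648 cell growth, from the Sanger screening data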
- test: cells
- Type: functional, cell-based, Homo sapiens
- measurement-setup: Homo sapiens, NCI-H1648
- Description: SANGER: Inhibition of human NCI-H1648 cell growth in a cell viability assay.
readout-name: IC50 (nM)
Output spec: scalar in nM, unitless text.

entry-smiles | readout-units | IC50
CC1=C(/C=C/C(C)=C/C=C/C(C)=C/C(=O)O)C(C)(C)CCC1 | nM | 9740

Next item in the queue.
Consider COc1cc(N2CCC(N3CCN(C)CC3)CC2)ccc1Nc1ncc(Cl)c(Nc2ccccc2S(=O)(=O)C(C)C)n1 . Its measured IC50 is 279

====

- System: ZR-75-30;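 also: growth inhibition of ZR-75-30 cells, measured with a cell viability readout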
- test: cells
- Format: functional, cell-based
- measurement-setup: Homo sapiens
- Description: SANGER: Inhibition of human ZR-75-30 cell growth in a cell viability assay.
Recorded IC50 by entry

Please review the following examples before continuing.
entry-smiles | target-desc | IC50
CC1=C(/C=C/C(C)=C/C=C/C(C)=C/C(=O)O)C(C)(C)CCC1 | ZR-75-30 | > 10 µM
NC(=O)c1ccc(N(C(N)=O)c2c(F)cccc2F)nc1-c1ccc(F)cc1F | ZR-75-30 | > 2 µM
O=C1NC(=O)c2c1c(-c1ccccc1Cl)cc1[nH]c3ccc(O)cc3c21 | ZR-75-30 | > 2 µM

Next up:
The reported value for NC1(c2ccc(-c3nc4ccn5c(=O)[nH]nc5c4cc3-c3ccccc3)cc2)CCC1 in terms of IC50 is > 4 µM

====

- Test system: SiHa;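 also: Viability-based readout of growth inhibition in SiHa cells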
- test: cells
- Assay type: functional, cell-based
- measurement-setup: Homo sapiens
- Description: SANGER: Inhibition of human SiHa cell growth in a cell viability assay.
Measured IC50, listed per entry for reference.

// field: IC50; key: CN(C)CCOc1ccc(-c2nc(-c3ccncc3)c(-c3ccc4c(c3)CC/C4=N\O)[nH]2)cc1 ; value = > 5 µM

Consider NC1(c2ccc(-c3nc4ccn5c(=O)[nH]nc5c4cc3-c3ccccc3)cc2)CCC1 . Its measured IC50 is > 4 µM

Note to self: IC50 recorded for C/C(=C\c1csc(C)n1)[C@@H]1C[C@@H]2O[C@]2(C)CCC[C@H](C)[C@H](O)[C@@H](C)C(=O)C(C)(C)[C@@H](O)CC(=O)O1 was > 0.032 µM

The recorded IC50 for O=C(NCCCNc1nc(Nc2cccc(NC(=O)N3CCCC3)c2)ncc1I)c1cccs1 is > 5 µM

Just so you know, measured IC50 for O=S(=O)(O)c1ccc2cc(/N=N/c3cc(S(=O)(=O)O)c4cccnc4c3O)ccc2c1 came out at > 16 µM

====

- System: SW1710;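 also: growth inhibition of SW1710 cells, determined with a cell viability assay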
- test: cells
- Assay type: functional, cell-based
- measurement-setup: Homo sapiens
- Description: SANGER: Inhibition of human SW1710 cell growth in a cell viability assay.
readout-name: IC50 (nM)
Provide the reading as a plain figure in nM.

Answered cases to consult:
entry-smiles | IC50, nM
Cc1ccc(C(=O)Nc2ccc(CN3CCN(C)CC3)c(C(F)(F)F)c2)cc1C#Cc1cnc2cccnn12 | 365
COc1ccc(-c2cc3nccn3c(Nc3ncccc3C(N)=O)n2)cc1OC | 1660
CN(NC(=O)CC(=O)NN(C)C(=S)c1ccccc1)C(=S)c1ccccc1 | 5.16

Input CS(=O)(=O)N1CCN(Cc2cc3nc(-c4cccc5[nH]ncc45)nc(N4CCOCC4)c3s2)CC1 . Output IC50: 1040

====

# key: entry, value: IC50
- Test system: IMR-5
- test: cells
- Type: functional, cell-based, Homo sapiens
- measurement-setup: Homo sapiens, IMR-5; read-out: IC50
- Description: SANGER: Inhibition of human IMR-5 cell growth in a cell viability assay.
Where a SMILES comes first, the peptide text is derived from it. The star is where a group is joined. Cbz = O=C(OCc1ccccc1)*

compound | target-desc | assay-value
C=CC(=O)N1CCCC(Nc2nc(Nc3ccc(N(C)C(=O)CC)cc3)nc3[nH]cnc23)C1 (stereo not drawn) | IMR-5 | > 10.2 µM
COc1ccc(-c2cc3nccn3c(Nc3ncccc3C(N)=O)n2)cc1OC | IMR-5 | 6.08 µM
OC[C@H](Cc1ccccc1)Nc1nc(Oc2ccc3c(c2)CCC3)nc2c1ncn2Cc1ccc(-c2ccccc2)cc1 | IMR-5 | 3.1 µM

Summary for this compound, Nc1ccccc1NC(=O)c1ccc(CNC(=O)OCc2cccnc2)cc1 : IC50 is > 5 µM

Query C/C(=C\c1csc(C)n1)[C@@H]1C[C@@H]2O[C@]2(C)CCC[C@H](C)[C@H](O)[C@@H](C)C(=O)C(C)(C)[C@@H](O)CC(=O)O1 yields IC50 of 0.00951 µM

For record O=S(=O)(O)c1ccc2cc(/N=N/c3cc(S(=O)(=O)O)c4cccnc4c3O)ccc2c1 the listed IC50 is > 16 µM

# compound CC(C)C[C@@H](C=O)NC(=O)[C@H](CC(C)C)NC(=O)[C@H](CC(C)C)NC(=O)OCc1ccccc1 [MG-132] (Cbz-Leu-Leu-Leu-aldehyde) ; its IC50 = > 1 µM

IC50 reading for COc1ccc(N(C(=O)Oc2c(C)cccc2C)c2ccnc(Nc3ccc(N4CCN(C)CC4)cc3)n2)c(OC)c1 : > 5.12 µM

====

- System: P31-FUJ;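 also: growth inhibition of P31-FUJ cells, read out with a viability assay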
- test: cells
- Format: functional, cell-based, Homo sapiens
- measurement-setup: Homo sapiens, P31-FUJ
- Description: SANGER: Inhibition of human P31-FUJ cell growth in a cell viability assay.
readout-name: IC50

Worked cases, IC50 given:
molecule | IC50
COC(=O)[C@H](CCSC)NC(=O)c1ccc(NC[C@@H](N)CS)cc1-c1ccccc1 | > 1020 nM
OC[C@H](Cc1ccccc1)Nc1nc(Oc2ccc3c(c2)CCC3)nc2c1ncn2Cc1ccc(-c2ccccc2)cc1 | > 10200 nM
CC(C)C[C@H](NC(=O)[C@H](Cc1ccccc1)NC(=O)c1cnccn1)B(O)O [BORTEZOMIB] | > 20 nM

Attention now shifts to the item below.
The measured IC50 associated with Cc1ccc(C(=O)Nc2ccc(CN3CCN(C)CC3)c(C(F)(F)F)c2)cc1C#Cc1cnc2cccnn12 [PONATINIB] reads > 512 nM

====

- System: NCI-H2171;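 also: growth inhibition of human NCI-H2171 cells, read out by a cell viability assay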
- test: cells
- Format: functional, cell-based, Homo sapiens
- measurement-setup: nci-h2171
- Description: SANGER: Inhibition of human NCI-H2171 cell growth in a cell viability assay.
pIC50: −log10 of the molar value. Where a SMILES comes first, the peptide text is derived from it. The star is where a group is joined. Cbz = O=C(OCc1ccccc1)*
readout-name: pIC50

Data point: CC(C)C[C@@H](C=O)NC(=O)[C@H](CC(C)C)NC(=O)[C@H](CC(C)C)NC(=O)OCc1ccccc1 [MG-132] (Cbz-Leu-Leu-Leu-aldehyde) ; pIC50 = < 6.00

====

- Test system: SK-CO-1;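 also: growth inhibition of SK-CO-1 cells, determined by a viability readout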
- test: cells
- Format: functional, cell-based
- measurement-setup: Homo sapiens
- Description: SANGER: Inhibition of human SK-CO-1 cell growth in a cell viability assay.
readout-name: IC50

Reported IC50 ( O=S(=O)(O)c1ccc2cc(/N=N/c3cc(S(=O)(=O)O)c4cccnc4c3O)ccc2c1 ) = > 16 µM

====

- Test system: HOP-92;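 also: cell viability readout, with IC50 reflecting inhibition of HOP-92 cell growth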
- test: cells
- Assay type: functional, cell-based
- measurement-setup: Homo sapiens
- Description: SANGER: Inhibition of human HOP-92 cell growth in a cell viability assay.
readout-name: IC50

entry-smiles | target-desc | assay-value
COc1ccc(-c2cc3nccn3c(Nc3ncccc3C(N)=O)n2)cc1OC | HOP-92 | > 8 µM
CN(NC(=O)CC(=O)NN(C)C(=S)c1ccccc1)C(=S)c1ccccc1 | HOP-92 | 0.0127 µM
O=S(=O)(O)c1ccc2cc(/N=N/c3cc(S(=O)(=O)O)c4cccnc4c3O)ccc2c1 | HOP-92 | > 16 µM
CC1(C)CCC(c2ccc(Cl)cc2)=C(CN2CCN(c3ccc(C(=O)NS(=O)(=O)c4ccc(N[C@H](CCN5CCOCC5)CSc5ccccc5)c(S(=O)(=O)C(F)(F)F)c4)cc3)CC2)C1 | HOP-92 | > 2 µM
CN(C)CCOc1ccc(-c2nc(-c3ccncc3)c(-c3ccc4c(c3)CC/C4=N\O)[nH]2)cc1 | HOP-92 | 1.11 µM

Then there is this molecule:
Record NC(=O)Nc1cc(-c2cccc(F)c2)sc1C(=O)N[C@H]1CCCNC1 / HOP-92, IC50 recorded as 0.293 µM
